Test: amyloid nucleation score (Sup35N fusion, yeast selection) (log enrichment); library NNK2; higher = more nucleation; inactive = no reads after selection;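 note: zero at mode of non-aggregating sequences after 7 days selection at 30°C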
For each record, write down the corresponding amyloid nucleation score.
Answers are plain numbers.

These recorded examples may help you get a feel for the data.
              substance  assay_result
0          FVEIIAKWILTI         0.033
1  IVLEMLKVTRVGPKQIGWPW         0.696
2  LSSSMSSSRASQDFGFLGVH         0.877
3  LKNLGYNMSPMYHWHCSSSK        -0.003
4        ICSSYALGQSTETG        -0.559

List amyloid nucleation score for every entry below, keeping the order given.
1. NELFWFNMSFSCPKWGICNL
2. TVTSLRSLPIMSMPCRETTD
3. FKFVIYRFIFHPSEVPKGD
4. GWSYNLSETLKQSVESVLTS

1. 4.17
2. 1.1
3. 0.057
4. 1.42
